molecular target: Protein RecA (Mycobacterium tuberculosis, UniProt P9WHJ3); test: Fluorescence Cell-Free Homogeneous Dose Retest to Identify Inhibitors of RecA-Intein Splicing Activity. [Related pubchem assays (depositor defined):AID2097, AID2223, AID489010, AID492950]; type: functional
The source made the active and inactive calls. Rule as the data show it: actives have a measured EC50 and inactives only a lower limit.
Outcomes: yes (active), no (inactive)

[
  {
    "compound": "N#CC1=C(N)Oc2[nH]nc(-c3cccs3)c2C1c1cccs1 (stereo not given)",
    "answer label": "yes"
  },
  {
    "compound": "COCc1n[nH]c2c1C1(CCSCC1)C(C#N)=C(N)O2",
    "answer label": "yes"
  },
  {
    "compound": "COc1ccc(-c2c(=O)n(OC)c3ccccc3[n+]2[O-])cc1OC",
    "answer label": "no"
  },
  {
    "compound": "CN(C1=C(NC(=O)c2ccc(Cl)cc2)C(=O)c2ccccc2C1=O)c1ccccc1",
    "answer label": "yes"
  },
  {
    "compound": "CCN(CC)CCN1C(=O)c2cccc3cc(N)cc(c23)C1=O",
    "answer label": "yes"
  },
  {
    "compound": "Cc1nn(-c2ccccc2)c(Cl)c1CN(C(=O)CCl)c1cccc2ccccc12",
    "answer label": "yes"
  },
  {
    "compound": "COc1cc(C2C(C#N)=C(N)Oc3c2c(-c2ccccc2)nn3-c2ccccc2)cc(OC)c1OC (stereo not given)",
    "answer label": "yes"
  },
  {
    "compound": "COCCOC(=O)C1=C(C)N=C2SCCC(=O)N2C1c1ccc(OC(=O)c2ccco2)cc1 (stereo not given)",
    "answer label": "yes"
  },
  {
    "compound": "O=C(Nc1ccc(Cl)cc1)C1c2cccc[n+]2CC(=O)N1Cc1ccc2c(c1)OCO2 (stereo not given)",
    "answer label": "yes"
  },
  {
    "compound": "CCOc1ccc(/C=C2\\SC(=S)N(CCC(=O)Nc3ccccc3C(=O)O)C2=O)cc1",
    "answer label": "yes"
  }
]
